B1: PLAGL1 (parent)
chain: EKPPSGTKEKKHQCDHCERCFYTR

variants of: B1; experiment: protein stability index of a GFP-peptide fusion (GPS, HEK-293T) (PSI 1-6); higher = more stable; conditions: c terminus: a fixed tail appended;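 further: lentivirally expressed fusions sorted by FACS into six bins by GFP to DsRed ratio, PSI derived from sequencing read proportions per bin multiplied by bin number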
Is protein stability index at least 3? Then satisfied. If not, not satisfied.

Please review the following examples before continuing.
P4Y    satisfied
R19M    satisfied
R19H    satisfied
P3Y    satisfied
H12R    not satisfied
Q13W    not satisfied
R19K    satisfied
C20I    not satisfied
K2L    satisfied
K10A    satisfied

Does K10S have a reported protein stability index of at least 3? satisfied

Every entry's value here was drawn from the supplement of paper PMC10567573.
